Test details: gradient 5% acetonitrile 3 min, to 50% in 2 min, to 85% in 15 min, held 3 min, 100 µL/min
Assay conditions: column: Zorbax Extend-C18 2.1 x 50 mm; eluents: water / acetonitrile, 0.1% formic acid
Some compounds, each annotated with its measured RP-LC retention time.
Measurement name: RP-LC retention time (s)

- Compound: "CCC(=O)Nc1cc2c(cc1Sc1ccc(C)cc1)n(C)c(=O)n2C"
  Measurement name: "RP-LC retention time"
  Unit info: "s"
  Recorded measurement: 893
- Compound: "Cc1ccc(NC(=O)Nc2nccn(-c3cccc(Cl)c3)c2=O)cc1F"
  Measurement name: "RP-LC retention time"
  Unit info: "s"
  Recorded measurement: 1000
- Compound: "CC(C)CCNC(=O)c1ccc2c(c1)N(C)C(=O)C1CCCCN21 (stereo not drawn)"
  Measurement name: "RP-LC retention time"
  Unit info: "s"
  Recorded measurement: 885

The measured values listed here are drawn from the METLIN SMRT retention time set (Domingo-Almenara et al. 2019).
